Value source: paper PMC5791972

experiment: in vivo
measurement.parameters: male, C57BL/6, mouse, iv, 1 mg/kg
reported.property: Vd (L/kg)

compound="Cn1c(=O)n(CCCO)c(=O)c2c1nc(Oc1cccc(Cl)c1)n2Cc1ccc(Cl)cc1 [HC-070]" reported_property=Vd endpoint_result=1.5

---

assayed.system: UniProtKB Q8VD38
Sequence (Q8VD38 1-974): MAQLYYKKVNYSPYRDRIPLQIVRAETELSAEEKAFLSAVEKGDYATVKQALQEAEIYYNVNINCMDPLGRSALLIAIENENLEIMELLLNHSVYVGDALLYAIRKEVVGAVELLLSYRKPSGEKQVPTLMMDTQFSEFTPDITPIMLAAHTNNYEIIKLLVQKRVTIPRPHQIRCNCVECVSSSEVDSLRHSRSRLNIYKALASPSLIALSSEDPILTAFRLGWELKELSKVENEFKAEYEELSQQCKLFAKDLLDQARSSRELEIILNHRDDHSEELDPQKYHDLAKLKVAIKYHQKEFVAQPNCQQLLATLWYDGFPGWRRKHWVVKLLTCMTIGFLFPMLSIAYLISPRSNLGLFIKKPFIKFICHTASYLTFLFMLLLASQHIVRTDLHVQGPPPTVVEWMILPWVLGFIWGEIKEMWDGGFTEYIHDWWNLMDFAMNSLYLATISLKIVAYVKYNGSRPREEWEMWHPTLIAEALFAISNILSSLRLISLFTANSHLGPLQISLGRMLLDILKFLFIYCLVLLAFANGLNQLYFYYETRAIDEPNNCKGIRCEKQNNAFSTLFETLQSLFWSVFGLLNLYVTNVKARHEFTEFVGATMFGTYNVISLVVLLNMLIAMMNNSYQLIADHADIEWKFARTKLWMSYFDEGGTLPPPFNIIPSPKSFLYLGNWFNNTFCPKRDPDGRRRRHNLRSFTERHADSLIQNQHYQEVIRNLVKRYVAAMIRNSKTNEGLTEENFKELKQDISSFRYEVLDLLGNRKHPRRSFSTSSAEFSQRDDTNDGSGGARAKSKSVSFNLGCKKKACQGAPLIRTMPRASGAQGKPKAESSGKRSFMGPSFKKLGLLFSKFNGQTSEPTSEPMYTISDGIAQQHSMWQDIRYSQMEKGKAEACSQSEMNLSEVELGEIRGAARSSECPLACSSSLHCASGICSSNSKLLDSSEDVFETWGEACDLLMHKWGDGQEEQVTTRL
experiment: Whole-cell manual patch clamp
reported.property: IC50

smiles=Cn1c(=O)n(CCCO)c(=O)c2c1nc(Oc1cccc(OC(F)(F)F)c1)n2Cc1ccc(Cl)cc1 reported_property=IC50 endpoint_result="~410 pM"

---

assayed.system: TRPC6 (Homo sapiens)
Sequence (Q9Y210 1-931): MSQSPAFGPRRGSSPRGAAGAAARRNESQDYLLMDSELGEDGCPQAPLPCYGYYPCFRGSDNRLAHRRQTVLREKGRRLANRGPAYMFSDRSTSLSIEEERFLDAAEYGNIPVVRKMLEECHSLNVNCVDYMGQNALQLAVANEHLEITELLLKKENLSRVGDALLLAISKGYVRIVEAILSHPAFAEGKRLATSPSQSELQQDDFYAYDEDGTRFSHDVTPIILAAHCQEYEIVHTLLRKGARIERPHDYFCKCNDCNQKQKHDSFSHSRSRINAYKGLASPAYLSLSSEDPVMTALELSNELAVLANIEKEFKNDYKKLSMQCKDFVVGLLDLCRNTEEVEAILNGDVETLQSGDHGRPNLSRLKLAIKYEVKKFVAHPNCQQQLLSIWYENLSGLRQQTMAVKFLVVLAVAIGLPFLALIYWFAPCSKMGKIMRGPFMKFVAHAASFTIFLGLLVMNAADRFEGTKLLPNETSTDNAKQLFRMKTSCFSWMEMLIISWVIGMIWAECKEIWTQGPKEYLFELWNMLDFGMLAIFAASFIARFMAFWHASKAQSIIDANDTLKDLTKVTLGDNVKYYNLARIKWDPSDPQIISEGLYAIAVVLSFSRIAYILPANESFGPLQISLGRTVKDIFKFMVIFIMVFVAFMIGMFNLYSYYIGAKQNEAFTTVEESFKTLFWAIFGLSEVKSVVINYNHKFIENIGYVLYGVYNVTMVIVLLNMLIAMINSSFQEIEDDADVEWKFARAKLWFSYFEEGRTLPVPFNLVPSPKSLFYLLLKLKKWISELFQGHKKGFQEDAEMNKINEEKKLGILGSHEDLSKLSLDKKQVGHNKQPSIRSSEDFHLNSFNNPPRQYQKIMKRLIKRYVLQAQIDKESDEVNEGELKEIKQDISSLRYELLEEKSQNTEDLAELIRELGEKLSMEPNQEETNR
reported.property: IC50

compound="Cn1c(=O)n(CCCO)c(=O)c2c1nc(Oc1cccc(OC(F)(F)F)c1)n2Cc1ccc(Cl)cc1 [HC-608]" endpoint_result="> 1.64 µM"
